Listed here: items and their measured pIC50.
# system: VIM-1 (Pseudomonas aeruginosa (strain ATCC 15692 / DSM 22644 / CIP 104116 / JCM 14847 / LMG 12228 / 1C / PRS 101 / PAO1), UniProt A0A0F7KYQ8)
# method-notes: Enzyme activity: determination of IC50, fluorescence assay with CCF2-FA substrate (VIM-1)
# Type: biochemical
# test-context: VIM-1 enzyme, CCF2-FA substrate; read-out: VIM-1 IC50
Remember, pIC50 is on a log scale: it is -log10 of the molar concentration.

Worked cases, answers included:
| compound | value-kind | observed-value |
| --- | --- | --- |
| NS(=O)(=O)c1c(CC2CCN(CCO)CC2)ccc(-c2ccc(C3CNC3)cc2)c1-c1nn[nH]n1 [Example 607] | pIC50 | 8.68 |
| NS(=O)(=O)c1c(CCCCCO)ccc(CCCCCO)c1-c1nn[nH]n1 [Example 542] | pIC50 | 8.19 |
| NCC1CCC(N[C@H]2CC[C@H](c3ccc(C(F)(F)F)c(S(N)(=O)=O)c3-c3nnn[nH]3)CC2)CC1 (stereo partly shown) [Example 699] | pIC50 | 8.33 |
| N=C(N)NCc1ccc(-c2ccc(CC3CCNCC3)c(S(N)(=O)=O)c2-c2nn[nH]n2)cc1 [Example 594] | pIC50 | 8.27 |
| NS(=O)(=O)c1c(C(F)(F)F)ccc(-c2cccc(N3CCC(O)CC3)c2)c1-c1nnn[nH]1 [Example 741] | pIC50 | 8.56 |

Ask | Complete the entry with pIC50 for Nc1cccc2c(-c3ccc(C(F)(F)F)c(S(N)(=O)=O)c3-c3nn[nH]n3)cc(C(=O)O)nc12 [Example 526]
Reply | 8.80

Ask | Query pIC50 for CN1CCC2(CCN(c3ccc(-c4cccc(S(N)(=O)=O)c4-c4nnn[nH]4)cn3)C2)C1 (stereo not shown) [Example 632]
Reply | 6.32

----------
# system: VIM-1 (Pseudomonas aeruginosa (strain ATCC 15692 / DSM 22644 / CIP 104116 / JCM 14847 / LMG 12228 / 1C / PRS 101 / PAO1), UniProt A0A0F7KYQ8)
# method-notes: Enzyme activity: determination of IC50, fluorescence assay with CCF2-FA substrate (VIM-1)
# Type: biochemical
# test-context: fluorescence assay with CCF2-FA substrate; read-out: VIM-1 IC50
value-kind: pIC50
Note on pIC50: it is the negative log10 of concentration, concentration in mol/L.

Observe how each entry below is paired with its result.
| compound | observed-value |
| --- | --- |
| NS(=O)(=O)c1c(C(F)(F)F)ccc(N2CCC3(CCNCC3)C2)c1-c1nnn[nH]1 | 7.64 |
| NS(=O)(=O)c1cccc(-c2cccnc2)c1-c1nn[nH]n1 | 6.57 |
| NS(=O)(=O)c1cccc(-c2ccc(N3CCOCC3)cc2)c1-c1nn[nH]n1 | 7.02 |
| N[C@@H]1CN(c2ccc(C(F)(F)F)c(S(N)(=O)=O)c2-c2nnn[nH]2)CC12CC2 | 8.11 |
| NS(=O)(=O)c1c(C(F)(F)F)ccc(C2CCN(C3CCNCC3)CC2)c1-c1nnn[nH]1 | 6.72 |
| NC1CCC(c2ccc(CC3CCNCC3)c(S(N)(=O)=O)c2-c2nn[nH]n2)CC1 (stereo not drawn) | 7.71 |
| NS(=O)(=O)c1cccc(-c2ccnc(F)c2)c1-c1nn[nH]n1 | 7.00 |
| NS(=O)(=O)c1nccc(-c2ccc(C3CCNCC3)cc2)c1-c1nnn[nH]1 | 7.15 |
| NS(=O)(=O)c1c(C(F)(F)F)ccc([C@H]2CC[C@H](C3CCNCC3)CC2)c1-c1nnn[nH]1 | 9.67 |
| CC(C)(C)C(=O)NCC1CCN(c2ccc(C(F)(F)F)c(S(N)(=O)=O)c2-c2nnn[nH]2)CC1 | 8.82 |

Ask | Find the measured pIC50 of NS(=O)(=O)c1cccc(-c2cnn(CCN3CCOCC3)c2)c1-c1nnn[nH]1 and report it.
Reply | 4.84

Ask | Read off the recorded pIC50 for CN(c1ncc(-c2cccc(S(N)(=O)=O)c2-c2nn[nH]n2)cn1)S(C)(=O)=O
Reply | 6.84

Ask | Provide one value: measured pIC50 of NS(=O)(=O)c1c(C(F)(F)F)ccc(-c2ccc3c(c2)CNC3=O)c1-c1nnn[nH]1
Reply | 9.63

Ask | Please give measured pIC50 of the following entry: NS(=O)(=O)c1c(C(F)(F)F)ccc(N2CCC(N3CCNCC3)C2)c1-c1nnn[nH]1 (stereo not drawn)
Reply | 8.12
